Tested system: Serine/threonine-protein kinase PAK 2 (Homo sapiens) (UniProt Q13177);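 also: values are mean percent inhibition of PAK2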
Sequence (Q13177 whole entry): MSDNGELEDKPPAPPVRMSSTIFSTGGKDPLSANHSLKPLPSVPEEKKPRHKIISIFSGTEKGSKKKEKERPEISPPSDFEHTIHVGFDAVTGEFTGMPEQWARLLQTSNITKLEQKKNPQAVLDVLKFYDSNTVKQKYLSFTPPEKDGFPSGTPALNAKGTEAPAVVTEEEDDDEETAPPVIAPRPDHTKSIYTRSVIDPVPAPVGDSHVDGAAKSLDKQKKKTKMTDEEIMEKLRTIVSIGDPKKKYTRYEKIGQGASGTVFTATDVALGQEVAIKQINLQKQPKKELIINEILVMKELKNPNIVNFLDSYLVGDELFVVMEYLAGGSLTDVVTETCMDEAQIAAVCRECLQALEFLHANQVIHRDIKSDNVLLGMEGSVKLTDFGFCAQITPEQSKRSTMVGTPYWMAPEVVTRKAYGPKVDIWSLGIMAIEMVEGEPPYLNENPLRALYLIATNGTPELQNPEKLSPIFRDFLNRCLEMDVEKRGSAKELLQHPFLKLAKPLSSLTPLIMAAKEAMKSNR
Assay conditions: at 0.1 µM
// inhibition lookup, one value per entry
Observed property: inhibition (%)

compound="CCCN1CCCC(c2ccc(Nc3nc(Nc4cc(F)ccc4C(N)=O)c4cc[nH]c4n3)c(OC)c2)C1 (centres undefined)" number=2.49
compound=COC(=O)c1cncc(/C=C/c2c(C)cc(O)cc2C)c1 number=2.48
compound=O=S(=O)(CCOCc1ccc(-c2ccc3ncnc(Nc4ccc(OCc5cccc(F)c5)c(Cl)c4)c3c2)o1)c1ccccc1 number=-0.35
compound=Cc1ccc(NC(=O)CC2CC2)cc1-c1ccc(C(=O)NCC2CC2)cc1 number=1.76
compound=CCn1c(-c2nonc2N)nc2c(C#CC(C)(C)O)nc(OCCNC)cc21 number=1.23
compound=CC(C)c1ccc2c(c1)NC(=O)/C2=N/Nc1ccc(S(N)(=O)=O)cc1 number=-1.91
compound=Cc1ccc2c(-c3ccnc(Nc4cccc(C(F)(F)F)c4)n3)c(-c3ccccc3)nn2n1 number=1.38
compound=NS(=O)(=O)c1ccc(NC=C2C(=O)Nc3ccc4ncsc4c32)cc1 number=2.5
compound=Nc1ccc(C#Cc2cncnc2Nc2ccc(OCc3cccc(F)c3)c(Cl)c2)cc1 number=0.83
compound=Cc1ccc2c(-c3ccnc(Nc4ccc5c(c4)OCCO5)n3)c(-c3ccc(C(F)(F)F)cc3)nn2n1 number=0.68
compound=Cc1cc(-c2ccccn2)cc(C)c1/C=C/c1cncc(-c2nn[nH]n2)c1 number=1.95
compound=Cc1ccc(Nc2ccnc(Nc3cccc(C(N)=O)c3)n2)cc1O number=1.77
compound=O=C1Nc2ccccc2/C1=C/Nc1ccc2[nH]c(=O)[nH]c2c1 number=0.87
compound=COc1cccc(-n2nc(C)c3c(N/N=C(\C)c4ccncc4)ncnc32)c1 number=-1.35
compound=c1ccc(Nc2ncc(-c3ccccc3)o2)cc1 number=0.76
compound=Nc1nccc(-c2c(-c3ccc(F)cc3)nn3cc(C(F)(F)F)ccc23)n1 number=-2.44
compound=NS(=O)(=O)c1cccc(Nc2cc(-c3ccc(F)cc3)n[nH]2)c1 number=1.36
compound=O=C(Nc1ccc(Oc2ccc3[nH]c(NC(=O)c4ccco4)nc3c2)cc1)Nc1cc(C(F)(F)F)ccc1F number=0.17
compound=COc1cc2ncn(-c3cc(OCc4ccccc4S(C)(=O)=O)c(C#N)s3)c2cc1OC number=0.99
compound=Cc1cc(O)cc(C)c1/C=C/c1cncc(C(=O)N(C)C)c1 number=1.73
compound=OCc1ccc(-c2nc(-c3ccccn3)c(-c3ccc4c(c3)OCO4)[nH]2)cc1 number=2.61
compound=CCS(=O)(=O)c1ccc(OC)c(Nc2nccc(N(C)c3ccc4c(C)n[nH]c4c3)n2)c1 number=1.58
compound=COc1ccc(-c2nn3ncccc3c2-c2ccnc(Nc3cccc(C(F)(F)F)c3)n2)cc1 number=0.91
compound=[O-][S+]1CCN(Cc2ccc(-c3ccc4ncnc(Nc5ccc(OCc6ccccc6)c(Cl)c5)c4c3)o2)CC1 number=0.11
compound=C[C@@H](Oc1cc(-n2cnc3ccc(OCC4CCN(C)CC4)cc32)sc1C(N)=O)c1ccccc1C(F)(F)F number=-1.54
compound=COC(=O)Nc1nc2cc(Oc3ccc(NC(=O)Nc4cccc(Br)c4)cc3)ccc2[nH]1 number=0.73
compound=CN(C)C(=O)O[C@@H]1CN[C@@H](C#Cc2cc3ncnc(Nc4ccc(OCc5cccc(F)c5)c(Cl)c4)c3s2)C1 number=0.43
compound=C[C@@H](Oc1cc(-n2cnc3ccc(OC[C@@H](O)CO)cc32)sc1C(N)=O)c1ccccc1Cl number=-2.74
compound=Nc1nccc(-c2c(-c3ccc(F)cc3)ncn2CCCN2CCOCC2)n1 number=1.64
